Measured % of animals with a RT less than 40 seconds of individual entries
test system: antinociceptive activity of oxotremorine; assay: Antagonism of antinociceptive activity of oxotremorine, hot plate (Table III); format: in vivo, mice; settings: 200 mg/kg s.c. sesame oil, after 7 d
API: value field is a number in %; no unit string.

As a guide, the following entries are already answered.
-- ask Using the record for CCCCCCCCCC(=O)OCCN1C2CCC1CC(=C1c3ccccc3CSc3ccccc31)C2 (racemic) [Example 4] , report its % of animals with a RT less than 40 seconds.
-- reply 20

-- ask Using the record for CCCCCCC(=O)OCCN1C2CCC1CC(=C1c3ccccc3CSc3ccccc31)C2 (racemic) [Example 3] , report its % of animals with a RT less than 40 seconds.
-- reply 40

-- ask Using the record for CCC(=O)OCCN1C2CCC1CC(=C1c3ccccc3CSc3ccccc31)C2 (racemic) [Example 2] , report its % of animals with a RT less than 40 seconds.
-- reply 30

# evaluate next
-- ask Using the record for CCCCCCCCCCCCCCCC(=O)OCCN1C2CCC1CC(=C1c3ccccc3CSc3ccccc31)C2 (racemic) [Example 5] , report its % of animals with a RT less than 40 seconds.
-- reply 30

* * *

test system: antinociceptive activity of oxotremorine; assay: Antagonism of antinociceptive activity of oxotremorine, hot plate (Table III); type: in vivo, mice; details: 400 mg/kg s.c. sesame oil, after 4 h
Measured % of animals with a RT less than 40 seconds of individual entries

-- ask Using the record for CCCCCCC(=O)OCCN1C2CCC1CC(=C1c3ccccc3CSc3ccccc31)C2 (racemic) , report its % of animals with a RT less than 40 seconds.
-- reply 70%

-- ask Using the record for CCCCCCCCCCCCCCCC(=O)OCCN1C2CCC1CC(=C1c3ccccc3CSc3ccccc31)C2 (racemic) , report its % of animals with a RT less than 40 seconds.
-- reply 70%

-- ask Using the record for CCCCCCCCCC(=O)OCCN1C2CCC1CC(=C1c3ccccc3CSc3ccccc31)C2 (racemic) , report its % of animals with a RT less than 40 seconds.
-- reply 100%

# evaluate next
-- ask Using the record for CCC(=O)OCCN1C2CCC1CC(=C1c3ccccc3CSc3ccccc31)C2 (racemic) , report its % of animals with a RT less than 40 seconds.
-- reply 100%

* * *

assay: Acute toxicity study (LD50); set-up: species or system mice; details: mouse, in vivo, sc, aqueous solution, after 5 days of observation
Counter-ions that a name gives are not always drawn.
value.type: LD50 at 120 h

-- ask Using the record for OCCN1C2CCC1CC(=C1c3ccccc3CSc3ccccc31)C2 (racemic) [Example 1, hydrochloride] , report its LD50 at 120 h.
-- reply ~500 mg/kg

* * *

Test system: antinociceptive activity of oxotremorine
Assay: Antagonism of antinociceptive activity of oxotremorine, hot plate (Table III)
Format: in vivo, mice
Settings: 400 mg/kg s.c. sesame oil, after 3 d
Experimental: The antinociceptive activity of oxotremorine [Leslie, J. Pharm. Pharmae., Vol. 2 (1969), p. 248-50] was determined on mice using the hot plate method of Eddy et al [J. Pharmacol. Vol. 107 (1953), p. 385] in the presence and absence of the test product presumed to be antagonistic. […] The maximum time of staying on the hot plate was fixed at 45 seconds and the percentage of animals with a reaction time (RT) less than 40 seconds in spite of oxotremorine administration was determined.
Measured % of animals with a RT less than 40 seconds of individual entries
API: value field is a number in %; no unit string.

-- ask Lookup: % of animals with a RT less than 40 seconds / antinociceptive activity of oxotremorine / CCCCCCCCCC(=O)OCCN1C2CCC1CC(=C1c3ccccc3CSc3ccccc31)C2 (racemic)
-- reply 30

-- ask Lookup: % of animals with a RT less than 40 seconds / antinociceptive activity of oxotremorine / CCC(=O)OCCN1C2CCC1CC(=C1c3ccccc3CSc3ccccc31)C2 (racemic)
-- reply 80

-- ask Lookup: % of animals with a RT less than 40 seconds / antinociceptive activity of oxotremorine / CCCCCCCCCCCCCCCC(=O)OCCN1C2CCC1CC(=C1c3ccccc3CSc3ccccc31)C2 (racemic)
-- reply 20

Continuing:
-- ask Lookup: % of animals with a RT less than 40 seconds / antinociceptive activity of oxotremorine / CCCCCCC(=O)OCCN1C2CCC1CC(=C1c3ccccc3CSc3ccccc31)C2 (racemic)
-- reply 30

* * *

system: antinociceptive activity of oxotremorine; experiment: Antagonism of antinociceptive activity of oxotremorine, hot plate (Table III); format: in vivo, mice; conditions: 200 mg/kg s.c. sesame oil, after 3 d
value.type: % of animals with a RT less than 40 seconds (%)
API: value field is a number in %; no unit string.

-- ask Using the record for CCCCCCC(=O)OCCN1C2CCC1CC(=C1c3ccccc3CSc3ccccc31)C2 (racemic) , report its % of animals with a RT less than 40 seconds.
-- reply 50

-- ask Using the record for CCCCCCCCCCCCCCCC(=O)OCCN1C2CCC1CC(=C1c3ccccc3CSc3ccccc31)C2 (racemic) , report its % of animals with a RT less than 40 seconds.
-- reply 10

-- ask Using the record for CCCCCCCCCC(=O)OCCN1C2CCC1CC(=C1c3ccccc3CSc3ccccc31)C2 (racemic) , report its % of animals with a RT less than 40 seconds.
-- reply 10

-- ask Using the record for CCC(=O)OCCN1C2CCC1CC(=C1c3ccccc3CSc3ccccc31)C2 (racemic) , report its % of animals with a RT less than 40 seconds.
-- reply 50
